# Target or test system: bovine serum albumin (BSA) (Bos taurus)
# Sequence (P02769 25-607): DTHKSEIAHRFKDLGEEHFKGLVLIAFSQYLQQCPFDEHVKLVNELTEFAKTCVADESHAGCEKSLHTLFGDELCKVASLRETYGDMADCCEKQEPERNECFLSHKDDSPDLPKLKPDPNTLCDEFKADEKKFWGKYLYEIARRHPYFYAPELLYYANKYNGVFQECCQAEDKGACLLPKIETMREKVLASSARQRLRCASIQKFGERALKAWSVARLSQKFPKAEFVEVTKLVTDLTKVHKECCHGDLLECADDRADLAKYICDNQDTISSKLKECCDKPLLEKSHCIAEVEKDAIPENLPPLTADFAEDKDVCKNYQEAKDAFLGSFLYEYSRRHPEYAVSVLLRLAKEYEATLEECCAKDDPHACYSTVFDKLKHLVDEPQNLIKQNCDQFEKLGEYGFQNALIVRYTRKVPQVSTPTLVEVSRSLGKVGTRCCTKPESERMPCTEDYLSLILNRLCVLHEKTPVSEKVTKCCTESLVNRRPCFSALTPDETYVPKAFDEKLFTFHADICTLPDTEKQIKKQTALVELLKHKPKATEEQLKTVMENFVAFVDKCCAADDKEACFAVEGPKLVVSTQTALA
# Method: spectrophotometric metachromatic shift titration
Assay readout: Kd (µM)
Entry rule: numbers only, all in µM.

Record request: Kd value, item O=C1OC2(c3ccccc31)c1cc(I)c(O)c(I)c1Oc1c2cc(I)c(O)c1I 14

###

# Target or test system: CD40L (CD154) (Homo sapiens)
# Sequence (P29965 108-261): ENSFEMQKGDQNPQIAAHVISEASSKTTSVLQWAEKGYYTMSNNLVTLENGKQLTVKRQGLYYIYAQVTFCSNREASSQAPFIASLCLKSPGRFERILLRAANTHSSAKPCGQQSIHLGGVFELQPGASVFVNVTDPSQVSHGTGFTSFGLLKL
Assay readout: pKd
pKd here: minus log base 10 of the concentration, concentration in moles per litre.

I'm curious: which pKd was measured for O=C1OC2(c3ccccc31)c1cc(I)c(O)c(I)c1Oc1c2cc(I)c(O)c1I tested on CD40L (CD154) (Homo sapiens)? 4.70

Cited source for all entries: paper PMC3618669
